The following compounds are shown together with reported pIC50 values.
target: Recombinant STAT6 protein (STAT6 (W123-T658)) (Homo sapiens, UniProt P42226); construct: Recombinant STAT6 protein (STAT6 (W123-T658)); assay: STAT6 Fluorescence Polarization (FP) Assay; format: binding; conditions: STAT6 (W123-T658) 250 nM, probe 5-FAM-Ap[…]-NH2 2 nM, 45-minute incubation; read-out: STAT6 (FP assay IC50 class)
pIC50: −log10 of the molar value.

Given the compound CC[C@@H]1CC[C@H](NC(=O)c2cc3cc(C(F)P(=O)(O)O)ccc3s2)C(=O)N2[C@H](CC[C@H]2C(=O)N2C[C@@H](C#N)[C@H](c3ccccc3)C2)C1 (single isomer, unassigned) , write its reported pIC50.
≥ 6.52

Given the compound CN(C)C(=O)c1ccncc1C1CN(C(=O)[C@@H]2CC[C@@H]3CCC[C@H](NC(=O)c4cc5cc([C@@H](F)P(=O)(O)O)ccc5s4)C(=O)N32)C1 (single isomer, unassigned) , write its reported pIC50.
4.52 to 5.52

Given the compound O=C(N[C@H]1CCC[C@H]2CC[C@@H](C(=O)N3CC(c4cnccc4N4CCOCC4)C3)N2C1=O)c1cc2cc(C(F)P(=O)(O)O)ccc2s1 (some centres unmarked) , write its reported pIC50.
4.52 to 5.52

Given the compound COc1c(C2CN(C(=O)[C@@H]3CC[C@@H]4CCC[C@H](NC(=O)c5cc6cc(C(F)P(=O)(O)O)ccc6s5)C(=O)N43)C2)cnn1C (some centres unmarked) , write its reported pIC50.
4.52 to 5.52

Given the compound COc1ncccc1[C@@H]1CN(C(=O)[C@@H]2CC[C@@H]3CCCC[C@H](NC(=O)c4cc5cc(C(F)P(=O)(O)O)ccc5s4)C(=O)N32)C[C@H]1C#N (relative stereo) , write its reported pIC50.
≥ 6.52

* * *

Biological target: pY705-STAT3 in PBMC (Homo sapiens)
Construct: Cryopreserved Peripheral Blood Mononuclear Cells (PBMC) are from AllCells; host or cells: cryopreserved PBMC
Sequence (P40763 whole entry): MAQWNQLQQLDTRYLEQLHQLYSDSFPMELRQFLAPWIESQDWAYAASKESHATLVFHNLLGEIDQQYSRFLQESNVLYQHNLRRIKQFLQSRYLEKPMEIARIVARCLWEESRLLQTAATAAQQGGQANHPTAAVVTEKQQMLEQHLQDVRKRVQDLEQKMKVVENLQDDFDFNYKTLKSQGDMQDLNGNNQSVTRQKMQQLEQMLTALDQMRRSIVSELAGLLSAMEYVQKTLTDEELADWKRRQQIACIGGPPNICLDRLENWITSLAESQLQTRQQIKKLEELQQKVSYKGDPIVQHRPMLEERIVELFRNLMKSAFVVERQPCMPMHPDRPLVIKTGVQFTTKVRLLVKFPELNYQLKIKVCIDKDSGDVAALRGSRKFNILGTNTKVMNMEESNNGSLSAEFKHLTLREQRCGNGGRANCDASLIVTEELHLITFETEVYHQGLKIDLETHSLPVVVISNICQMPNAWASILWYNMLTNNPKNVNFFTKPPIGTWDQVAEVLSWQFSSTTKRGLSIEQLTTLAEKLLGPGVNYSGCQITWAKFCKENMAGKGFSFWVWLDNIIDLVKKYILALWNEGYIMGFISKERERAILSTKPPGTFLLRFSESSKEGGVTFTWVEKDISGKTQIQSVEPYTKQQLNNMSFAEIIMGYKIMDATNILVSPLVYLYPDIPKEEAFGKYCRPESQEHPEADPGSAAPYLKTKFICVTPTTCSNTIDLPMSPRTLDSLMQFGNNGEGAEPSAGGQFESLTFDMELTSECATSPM
Test: MSD-pSTAT-PBMC Assay (pSTAT3, IL-6 stimulated)
Type: cell-based
Conditions: PBMC, compound 3 hrs, then 10 ng/mL IL-6 for 10 min; Table 115; read-out: STAT3
Method: Cryopreserved Peripheral Blood Mononuclear Cells (PBMC) are from AllCells. Recombinant Human IL-4 and IL-6 are from Peprotech. […] Cyropreserved PBMCs were thawed out and allowed to recover overnight in IMDM+10% heat-inactivated FBS prior to plating 50,000 (STAT3) or 25,000 (STAT6) cells per well in 96-well U-bottom tissue culture plates. […] Assay plates were then washed and 150 μL of 1× Read Buffer-T (MSD) was added to each well prior to reading on an SQ120 MSD Plate Reader. […]
pIC50: −log10 of the molar value.
The following compounds are shown together with reported pIC50 values.

As a guide, the following entries are already answered.
compound="CCCOC(=O)[C@H](C)NP(=O)(Oc1ccccc1)C(F)c1ccc2sc(C(=O)N[C@H]3CCCC[C@H]4CC[C@@H](C(=O)N5CC(NCCOC)(c6ccccn6)C5)N4C3=O)cc2c1 (stereo partly shown)" systemname="pY705-STAT3 in PBMC (Homo sapiens)" recordedresult="6.00 to 7.00"
compound="CCCOC(=O)[C@H](C)N[P@](=O)(Oc1ccccc1)[C@@H](F)c1ccc2sc(C(=O)N[C@H]3C[C@@H](C)C[C@H]4CC[C@@H](C(=O)N5CC(c6cnccc6OC)C5)N4C3=O)cc2c1 (single isomer, unassigned) [Compound 1059]" systemname="pY705-STAT3 in PBMC (Homo sapiens)" recordedresult="> 7.00"
compound="CCCOC(=O)[C@H](C)NP(=O)(Cc1ccc2sc(C(=O)N[C@H]3CCC[C@H]4CC[C@@H](C(=O)N5CC(c6cnccc6CC)C5)N4C3=O)cc2c1)Oc1ccccc1 (stereo partly shown)" systemname="pY705-STAT3 in PBMC (Homo sapiens)" recordedresult="> 7.00"

# context switch: different compound, same pIC50
Given the compound CCCOC(=O)[C@H](C)NP(=O)(Oc1ccccc1)[C@@H](F)c1ccc2sc(C(=O)N[C@H]3CCC[C@H]4CC[C@@H](C(=O)N5CC(c6cnccc6N(C)C)C5)N4C3=O)cc2c1 (stereo partly shown) , write its reported pIC50.
6.00 to 7.00

* * *

biological target: Recombinant STAT6 protein (STAT6 (W123-T658)) (Homo sapiens, UniProt P42226); construct: Recombinant STAT6 protein (STAT6 (W123-T658)); experiment: STAT6 Fluorescence Polarization (FP) Assay; format: binding; conditions: STAT6 (W123-T658) 250 nM, probe 5-FAM-Ap[…]-NH2 2 nM, 45-minute incubation; read-out: STAT6 (FP assay IC50 class)
The following compounds are shown together with reported IC50 values.

compound="Cc1ccncc1C1CN(C(=O)[C@@H]2CC[C@@H]3CCC[C@H](NC(=O)c4cc5cc(CP(=O)(O)O)ccc5s4)C(=O)N32)C1 [Compound 214]" recordedresult="3 to 30 µM"
compound="O=C(N[C@H]1CCC[C@H]2CC[C@@H](C(=O)N3CC(c4nccnc4F)C3)N2C1=O)c1cc2cc(CP(=O)(O)O)ccc2s1 [Compound 538]" recordedresult="3 to 30 µM"
compound="CN(C)c1c(F)cncc1C1CN(C(=O)[C@@H]2CC[C@@H]3CCC[C@H](NC(=O)c4cc5cc([C@H](F)P(=O)(O)O)ccc5s4)C(=O)N32)C1 (single isomer, unassigned) [Compound 685]" recordedresult="3 to 30 µM"
compound="CC(C)n1cc(N(C)C(=O)[C@@H]2CC[C@@H]3CCCC[C@H](NC(=O)c4cc5cc(C(F)(F)P(=O)(O)O)ccc5s4)C(=O)N32)cn1 [Compound 793]" recordedresult="3 to 30 µM"
compound="O=C(N[C@H]1CCCC[C@H]2CC[C@@H](C(=O)NC3CN(C(=O)OC4CC4)C3)N2C1=O)c1cc2cc(C(F)P(=O)(O)O)ccc2s1 (some centres unmarked) [Compound 528]" recordedresult="0.3 to 3 µM"

Given the compound N#Cc1nccc(C2CN(C(=O)[C@@H]3CC[C@@H]4CCC[C@H](NC(=O)c5cc6cc(CP(=O)(O)O)ccc6s5)C(=O)N43)C2)n1 [Compound 515] , write its reported IC50.
3 to 30 µM

Given the compound COc1c(Cl)cncc1C1CN(C(=O)[C@@H]2CC[C@@H]3CCC[C@H](NC(=O)c4cc5cc(C(F)P(=O)(O)O)ccc5s4)C(=O)N32)C1 (some centres unmarked) [Compound 682] , write its reported IC50.
3 to 30 µM

Given the compound N#C[C@@H]1[C@@H](c2ccccc2)CN(C(=O)[C@@H]2CC[C@@H]3CCC[C@H](NC(=O)c4cc5cc([C@@H](F)P(=O)(O)O)ccc5s4)C(=O)N32)C12CC2 (single isomer, unassigned) [Compound 920] , write its reported IC50.
≤ 0.3 µM

* * *

target: Recombinant STAT3 protein (STAT3 (G127-I722)) (Homo sapiens, UniProt P40763); construct: Recombinant STAT3 protein (STAT3 (G127-I722)); assay: STAT3 Fluorescence Polarization (FP) Assay; type: binding; conditions: STAT3 (G127-I722) 25 nM, probe 5-FAM-GpYLPQTV-NH2 2 nM, 45-minute incubation; read-out: STAT3 (FP assay IC50 class)
Sequence (P40763 127-722): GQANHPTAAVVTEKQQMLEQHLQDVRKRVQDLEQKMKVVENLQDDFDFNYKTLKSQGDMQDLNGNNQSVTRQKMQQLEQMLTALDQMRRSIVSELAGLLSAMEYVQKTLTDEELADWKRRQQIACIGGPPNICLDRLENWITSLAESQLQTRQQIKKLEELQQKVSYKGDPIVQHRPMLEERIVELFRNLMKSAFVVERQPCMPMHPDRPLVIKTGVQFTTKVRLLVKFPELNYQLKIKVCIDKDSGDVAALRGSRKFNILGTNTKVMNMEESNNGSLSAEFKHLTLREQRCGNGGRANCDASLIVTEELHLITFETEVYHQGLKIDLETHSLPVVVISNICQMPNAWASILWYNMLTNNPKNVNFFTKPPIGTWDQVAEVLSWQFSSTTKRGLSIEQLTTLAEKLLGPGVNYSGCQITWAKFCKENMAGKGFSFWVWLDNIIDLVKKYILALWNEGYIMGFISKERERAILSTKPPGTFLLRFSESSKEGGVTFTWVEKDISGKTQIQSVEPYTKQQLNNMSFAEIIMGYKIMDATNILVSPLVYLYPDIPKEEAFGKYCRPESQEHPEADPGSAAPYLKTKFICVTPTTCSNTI
readoutKind: IC50

As a guide, the following entries are already answered.
compound="C[C@@H]1[C@@H](c2cccnc2)CN1C(=O)[C@@H]1CC[C@@H]2CCC[C@H](NC(=O)c3cc4cc(C(F)P(=O)(O)O)ccc4s3)C(=O)N21 (single isomer, unassigned) [Compound 738]" recordedresult="< 100 nM"
compound="N#C[C@@H]1[C@@H](c2cncc(Cl)c2)CN(C(=O)[C@@H]2CC[C@@H]3CCCC[C@H](NC(=O)c4cc5cc(C(F)P(=O)(O)O)ccc5s4)C(=O)N32)C12CC2 (single isomer, unassigned)" recordedresult="1000 to 10000 nM"
compound=Cc1ccncc1C1CN(C(=O)[C@@H]2CC[C@@H]3CCC[C@H](NC(=O)c4cc5cc(CP(=O)(O)O)ccc5s4)C(=O)N32)C1 recordedresult="100 to 1000 nM"
compound="CN(C)c1cccnc1C1CN(C(=O)[C@@H]2CC[C@@H]3CCC[C@H](NC(=O)c4cc5cc(C(F)P(=O)(O)O)ccc5s4)C(=O)N32)C1 (some centres unmarked)" recordedresult="1000 to 10000 nM"

# context switch: different compound, same IC50
Given the compound O=C(N[C@H]1CCCC[C@H]2CC[C@@H](C(=O)N3CC(Cc4ccccn4)C3)N2C1=O)c1cc2cc(C(F)(F)P(=O)(O)O)ccc2s1 , write its reported IC50.
< 100 nM

* * *

Molecular target: pY641-STAT6 in PBMC (Homo sapiens)
Construct: Cryopreserved Peripheral Blood Mononuclear Cells (PBMC) are from AllCells; host or cells: cryopreserved PBMC
Sequence (P42226 1-847): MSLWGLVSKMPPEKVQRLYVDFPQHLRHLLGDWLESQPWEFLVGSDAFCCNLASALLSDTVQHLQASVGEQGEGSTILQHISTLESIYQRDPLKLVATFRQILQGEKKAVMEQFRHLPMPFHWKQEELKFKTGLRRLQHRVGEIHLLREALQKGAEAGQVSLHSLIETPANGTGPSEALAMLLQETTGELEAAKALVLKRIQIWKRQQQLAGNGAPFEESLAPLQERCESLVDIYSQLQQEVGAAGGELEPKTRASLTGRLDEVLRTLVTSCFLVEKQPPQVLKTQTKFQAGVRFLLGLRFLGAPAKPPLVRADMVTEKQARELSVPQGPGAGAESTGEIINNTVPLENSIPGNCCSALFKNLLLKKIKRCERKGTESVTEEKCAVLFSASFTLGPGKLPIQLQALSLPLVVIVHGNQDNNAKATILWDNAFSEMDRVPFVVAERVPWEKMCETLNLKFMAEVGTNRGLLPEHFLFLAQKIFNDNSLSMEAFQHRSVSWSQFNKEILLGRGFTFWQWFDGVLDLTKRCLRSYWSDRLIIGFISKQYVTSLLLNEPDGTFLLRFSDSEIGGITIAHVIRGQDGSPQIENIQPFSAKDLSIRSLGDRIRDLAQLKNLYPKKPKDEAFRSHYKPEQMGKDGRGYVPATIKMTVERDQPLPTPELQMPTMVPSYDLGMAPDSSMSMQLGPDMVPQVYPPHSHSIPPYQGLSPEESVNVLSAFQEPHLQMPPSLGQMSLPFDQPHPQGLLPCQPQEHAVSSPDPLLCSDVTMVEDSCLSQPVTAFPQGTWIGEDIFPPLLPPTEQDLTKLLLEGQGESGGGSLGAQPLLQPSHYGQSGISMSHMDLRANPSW
Assay: MSD-pSTAT-PBMC Assay (pSTAT6, IL-4 stimulated)
Assay type: cell-based
Details: PBMC, compound 3 hrs, then 1 ng/mL IL-4 for 10 min; Table 115; read-out: STAT6
pIC50: −log10 of the molar value.
The following compounds are shown together with reported pIC50 values.

compound="CC(C)CC(=O)SCCOP(=O)(OCOC(=O)O[C@H]1CCOC1)C(F)(F)c1ccc2sc(C(=O)N[C@H]3CCCC[C@H]4CC[C@@H](C(=O)N5C[C@H](c6cc[nH]c(=O)c6)[C@@H](C#N)C5)N4C3=O)cc2c1 (single isomer, unassigned)" systemname="pY641-STAT6 in PBMC (Homo sapiens)" readoutkind=pIC50 recordedresult="6.00 to 7.00"
compound="CCCOC(=O)[C@H](C)NP(=O)(Oc1ccccc1)[C@@H](F)c1ccc2sc(C(=O)N[C@H]3CCCC[C@H]4CC[C@@H](C(=O)N5C[C@H](c6cccc(Cl)c6)[C@@H](C#N)C56CC6)N4C3=O)cc2c1 (stereo partly drawn) [Compound 344]" systemname="pY641-STAT6 in PBMC (Homo sapiens)" readoutkind=pIC50 recordedresult="> 7.00"
compound="CCCOC(=O)[C@H](C)NP(=O)(Oc1ccccc1)[C@@H](F)c1ccc2sc(C(=O)N[C@H]3CCCC[C@H]4CC[C@@H](C(=O)N5C[C@H](c6cccc(Cl)c6)[C@@H](C#N)C56CC6)N4C3=O)cc2c1 (stereo partly drawn) [Compound 345]" systemname="pY641-STAT6 in PBMC (Homo sapiens)" readoutkind=pIC50 recordedresult="> 7.00"
compound="CC(C)CC(=O)SCCOP(=O)(OCOC(=O)OC1COC1)C(F)(F)c1ccc2sc(C(=O)N[C@H]3CCCC[C@H]4CC[C@@H](C(=O)N5C[C@H](c6cc[nH]c(=O)c6)[C@@H](C#N)C5)N4C3=O)cc2c1 (single isomer, unassigned)" systemname="pY641-STAT6 in PBMC (Homo sapiens)" readoutkind=pIC50 recordedresult="6.00 to 7.00"

Given the compound CC(C)(C)C(=O)SCCOP(=O)(OCCSC(=O)C(C)(C)C)C(F)c1ccc2sc(C(=O)N[C@H]3CCC[C@H]4CC[C@@H](C(=O)N5CC(c6cnccc6F)C5)N4C3=O)cc2c1 (stereo partly drawn) , write its reported pIC50.
< 5.52

Given the compound CC(C)(C)C(=O)SCCOP(=O)(OCCSC(=O)C(C)(C)C)C(F)(F)c1ccc2sc(C(=O)N[C@H]3CCC[C@H]4CC[C@@H](C(=O)N5CC(c6cnccc6F)C5)N4C3=O)cc2c1 , write its reported pIC50.
< 5.52

Given the compound CC(C)OC(=O)OCOP(=O)(OCOC(=O)OC(C)C)C(F)(F)c1ccc2ccc(C(=O)N[C@H]3CCCC[C@H]4CC[C@@H](C(=O)N5C[C@H](c6cc[nH]c(=O)c6)[C@@H](C#N)C5)N4C3=O)cc2c1 (single isomer, unassigned) , write its reported pIC50.
> 7.00

Given the compound CC(C)(C)C(=O)OCOP(=O)(OCOC(=O)C(C)(C)C)C(F)(F)c1ccc2sc(C(=O)N[C@H]3CCCC4CC[C@@H](C(=O)N5CC(N6CCOCC6)C5)N4C3=O)cc2c1 (stereo partly drawn) , write its reported pIC50.
6.00 to 7.00

Given the compound CC(C)CC(=O)SCCOP(=O)(OCCSC(=O)CC(C)C)[C@@H](F)c1ccc2sc(C(=O)N[C@H]3CCC[C@H]4CC[C@@H](C(=O)N5CC(c6cccnc6)C5)N4C3=O)cc2c1 , write its reported pIC50.
6.00 to 7.00
